# Target system: Polyunsaturated fatty acid 5-lipoxygenase (Homo sapiens) (UniProt P09917)
# Sequence (P09917 whole entry): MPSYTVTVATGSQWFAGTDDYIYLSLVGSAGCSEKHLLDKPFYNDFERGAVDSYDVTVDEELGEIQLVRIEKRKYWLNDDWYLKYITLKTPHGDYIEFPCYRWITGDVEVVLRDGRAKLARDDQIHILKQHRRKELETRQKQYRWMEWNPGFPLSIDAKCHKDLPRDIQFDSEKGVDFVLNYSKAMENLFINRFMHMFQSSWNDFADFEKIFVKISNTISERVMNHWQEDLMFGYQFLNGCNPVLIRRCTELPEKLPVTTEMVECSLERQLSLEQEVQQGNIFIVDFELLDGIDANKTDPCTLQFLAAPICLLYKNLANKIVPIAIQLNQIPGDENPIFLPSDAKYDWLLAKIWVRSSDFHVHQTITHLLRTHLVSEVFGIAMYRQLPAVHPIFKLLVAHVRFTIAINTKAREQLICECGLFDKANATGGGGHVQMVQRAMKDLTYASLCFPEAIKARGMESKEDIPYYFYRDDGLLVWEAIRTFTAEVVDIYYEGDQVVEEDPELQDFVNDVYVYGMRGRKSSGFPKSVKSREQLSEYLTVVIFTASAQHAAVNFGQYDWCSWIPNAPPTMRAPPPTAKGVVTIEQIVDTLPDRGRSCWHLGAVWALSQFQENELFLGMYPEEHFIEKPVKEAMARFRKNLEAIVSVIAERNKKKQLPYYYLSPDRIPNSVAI
# Test protocol: Inhibition of 5-lipoxygenase activity at 1000 uM by ferric-xylenol orange peroxide assay relative to control
The source made the active and inactive calls. No cut-off for these calls is given here.
Reported metric: Activity

[
  {
    "Structure smiles string": "COc1cc(/C=C/C(=O)OC[C@H]2O[C@@H](O[C@@H]3OC=C(C(=O)O)[C@H]4CC[C@](C)(O)[C@@H]34)[C@H](OC(=O)c3ccc(O)cc3)[C@@H](O)[C@@H]2O)ccc1O",
    "Reported metric": "Activity",
    "Reported value": "inactive"
  },
  {
    "Structure smiles string": "C[C@H]1[C@H]2[C@H](O[C@@H]3O[C@H](COC(=O)/C=C/c4ccc(O)c(O)c4)[C@@H](O)[C@H](O)[C@H]3OC(=O)c3ccc(O)cc3)OC=C(C(=O)O)[C@H]2C[C@@H]1O",
    "Reported metric": "Activity",
    "Reported value": "inactive"
  },
  {
    "Structure smiles string": "C[C@H]1[C@H]2[C@H](O[C@@H]3O[C@H](CO)[C@@H](O)[C@H](O)[C@H]3OC(=O)c3ccc(O)cc3)OC=C(C(=O)O)[C@H]2C[C@@H]1O",
    "Reported metric": "Activity",
    "Reported value": "inactive"
  }
]

----------
# Test system: Radical scavenging activity
# Test protocol: Antioxidant activity assessed as DPPH free radical scavenging activity
# Type: functional
pIC50: −log10 of the molar value.
Reported metric: pIC50

(1) C=C1[C@H]2[C@H](O[C@@H]3O[C@H](COC(=O)/C=C/c4ccc(O)c(O)c4)[C@@H](O)[C@H](O)[C@H]3OC(=O)c3ccc(O)cc3)OC=C(C(=O)O)[C@H]2C[C@@H]1O
(2) Cc1cc(C(C)(C)C)c(O)c(C(C)(C)C)c1 [BUTYLATED HYDROXYTOLUENE]
stdin: Between 1 and 2 , which one shows the larger pIC50 value? Reply briefly: the label of your chosen item.
stdout: 1
(1: 4.96, 2: 4.72)

----------
# Tested on: Radical scavenging activity
# Test protocol: Antioxidant activity assessed as DPPH free radical scavenging activity
# Format: functional
Reported metric: IC50 (µM)

[
  {
    "Compound": "COc1ccc(O)c(C(C)(C)C)c1.COc1ccc(O)cc1C(C)(C)C [BUTYLATED HYDROXYANISOLE]",
    "Target system": "Radical scavenging activity",
    "IC50 / µM": 18
  },
  {
    "Compound": "C[C@H]1[C@H]2[C@H](O[C@@H]3O[C@H](COC(=O)/C=C/c4ccc(O)c(O)c4)[C@@H](O)[C@H](O)[C@H]3OC(=O)c3ccc(O)cc3)OC=C(C(=O)O)[C@H]2C[C@@H]1O",
    "Target system": "Radical scavenging activity",
    "IC50 / µM": 11.4
  },
  {
    "Compound": "C[C@]1(O)CC[C@@H]2C(C(=O)O)=CO[C@@H](O[C@@H]3O[C@H](COC(=O)/C=C/c4ccc(O)c(O)c4)[C@@H](O)[C@H](O)[C@H]3OC(=O)c3ccc(O)cc3)[C@@H]21",
    "Target system": "Radical scavenging activity",
    "IC50 / µM": 15.2
  }
]
